tested on: IKK-beta; construct: gene IKBKB; settings: concentration: 1 μM, replicates: in singlicate; n = 1;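 further: KINOMEscan kinase panel screen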
Parameter measured: %Inh (%)
Report as a plain number; the unit % is understood.

Compound	Parameter measured	Val
COc1cccc(NC(=O)NC2CCN(c3ccnc(Nc4ccc(F)cc4)n3)C2)c1 (stereo not drawn)	%Inh	0
Cc1nnc(-c2ccc3occ(-c4ccc(S(C)=O)cc4)c3c2)[nH]1 (stereo not drawn)	%Inh	20
Cc1c(O)cccc1Nc1ccnc2ccc(C(F)(F)F)cc12.Cl	%Inh	0

Value wanted: %Inh (IKK-beta) of entry "CC(C)(C)c1ccc(C(=O)Nc2cn3cc(Cl)ccc3n2)cc1"
100

Field: %Inh (IKK-beta). Entry: COc1cc2ncn(-c3cc(OCC4CCCO4)c(C(N)=O)s3)c2cc1OC (stereo not drawn)
0

Param readout= %Inh; system= IKK-beta; entry= "Cc1cccc(-c2nc(Nc3cccc(C(N)=O)c3)c3ccccc3n2)n1" ; returns value.
0

Lab request: please report %Inh under test system IKK-beta for "Cc1cccc(-c2nc(-c3ccc(S(C)(=O)=O)cc3)sc2-c2ccnc(NCCc3ccccc3)c2)c1"
8

What is its %Inh for IKK-beta? Entry: "Cl.c1ccc(-c2n[nH]cc2-c2ccnc(-c3ccc(CN4CCOCC4)cc3)c2)nc1"
0

Notebook: pull reported %Inh for IKK-beta, entry "O=S(=O)(c1ccc(-c2ccnc3[nH]ccc23)cc1)N1CCCC1"
94.3

Form entry - test system: IKK-beta; read-out: %Inh; compound: "CCn1c(-c2cccnc2O)nc2cnccc21"
0

Give %Inh (IKK-beta) of the following compound: "Cc1cc(N2Cc3ccccc3C2)nc(Nc2ccc(S(=O)(=O)N3CCOCC3)cc2)n1.Cl"
0

What %Inh appears in the records for this compound with IKK-beta? "COc1ccc2nc(-c3cccc(C)n3)nc(Nc3ccncc3)c2c1"
22

Please tell me: %Inh of CC1=C(C(=O)Nc2cc3cn[nH]c3cc2F)C(c2ccc(C(F)(F)F)cc2)CC(=O)N1 (stereo not drawn) , system IKK-beta?
56

###

tested on: MARK4; details: concentration: 1 μM, replicates: in singlicate; n = 1
Overview of reported %Inh across a group of compounds:
Lab book: enter the figure in %, no units written.

Would you please look over these solved cases?
Compound	Tested on	%Inh, %
COc1cc2ncn(-c3cc(OCC4CCCO4)c(C(N)=O)s3)c2cc1OC (stereo not shown)	MARK4	0
COc1ccc(CNC(=O)NC2CCN(c3ccnc(Nc4cc(OC)c(OC)c(OC)c4)n3)C2)cc1 (stereo not shown)	MARK4	0
COc1ccccc1-c1ccc2c(NC(=O)C3CC3)n[nH]c2n1	MARK4	0
Cn1ccc2ncnc(Oc3cccc(C(=O)Nc4ccccc4)c3)c21	MARK4	6
CCCc1ccc(S(=O)(=O)NC2CCN(c3ccnc(Nc4ccc(F)cc4)n3)C2)cc1 (stereo not shown)	MARK4	0

May I ask what %Inh has been recorded for "Cc1cccc(-c2cc(Nc3ccncc3)c3ccccc3n2)n1" ?
0

# %Inh lookup, item "CN1C(=O)C(Nc2ccc(Cl)c(C(=O)O)c2)=C(c2ccc(Cl)cc2)C1=O"
13

Report %Inh for "NC(=O)c1nnc2ccccc2c1N" please.
19

Sample "COc1ccc2nc(-c3cccc(C)n3)nc(Nc3ccncc3)c2c1" — what was its %Inh?
0

What value of measured %Inh is listed for "Cl.Oc1ccc(-c2nc(-c3ccccc3)[nH]c2-c2ccncc2)cc1" ?
0

Any idea what its %Inh is? The compound is "Cc1ccccc1-n1cnc2c(N)ncnc21"
0

Given the entry "CN(C)CCN(C)C(=O)c1cc(-c2ccncc2)c(-c2ccc(Cl)c(O)c2)o1.Cl.Cl" , report its measured %Inh.
0

Look up %Inh for this compound: "Cn1ccc2ncnc(Oc3ccc(Nc4nc5ccccc5[nH]4)cc3)c21"
13
